Assay Notes: Solubility of SR13668 in various solvents
Assay type: physicochemical
Conditions: 65 °C, organic solvent or mixture, thermodynamic from solid; Myrj 52; 65-70 ° C.; UV
Excerpt: The other three systems are similar to the Solutol solutions, but the Solutol is the best candidate having the lowest freezing point (see Table 10) and a high SR13668 solubility (see Table 11). […] Vit E TPGS is water soluble natural-source vitamin E d-alpha tocopheryl polyethyleneglycol succinate, 387 IU/g. Myrj is Polyethylene Glycol (50) Monostearate.
Quantity Kind: solubility (mg/mL)
Numeric answer only, unit mg/mL assumed.

[ask] Looking for the measured solubility of CCOC(=O)c1ccc2[nH]c3c(OC)c4[nH]c5ccc(C(=O)OCC)cc5c4cc3c2c1 [SR13668] , can you help?
[reply] 6.7
